Attribution: paper PMC3004530

target: HDAC2 (Homo sapiens, UniProt Q92769)
Sequence (Q92769 whole entry, species assumed): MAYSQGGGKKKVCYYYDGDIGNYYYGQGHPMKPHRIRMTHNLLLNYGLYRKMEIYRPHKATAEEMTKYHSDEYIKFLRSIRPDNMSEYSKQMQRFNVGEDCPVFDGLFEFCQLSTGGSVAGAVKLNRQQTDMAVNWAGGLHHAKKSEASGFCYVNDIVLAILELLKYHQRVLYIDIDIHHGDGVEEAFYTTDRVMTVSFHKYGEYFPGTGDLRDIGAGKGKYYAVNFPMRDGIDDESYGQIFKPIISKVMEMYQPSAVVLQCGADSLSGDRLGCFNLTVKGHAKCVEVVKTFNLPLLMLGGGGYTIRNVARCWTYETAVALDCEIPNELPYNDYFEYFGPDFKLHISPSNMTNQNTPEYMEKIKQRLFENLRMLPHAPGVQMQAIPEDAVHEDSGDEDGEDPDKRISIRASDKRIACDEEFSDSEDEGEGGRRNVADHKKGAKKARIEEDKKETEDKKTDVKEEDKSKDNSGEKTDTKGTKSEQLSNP
ASSAY_READOUT: IC50 (µM)
The response must be a number in µM with no trailing unit.

Form field: IC50 recorded for C[C@@H]1CCCCO[C@@H](CN(C)Cc2ccc3c(c2)OCO3)[C@H](C)CN([C@@H](C)CO)C(=O)c2cc(N(C)C)ccc2O1 with HDAC2 (Homo sapiens, UniProt Q92769) (enter value)
6.6

====

target: HDAC1 (Homo sapiens); experiment: HDAC1 biochemical inhibition assay; details: read-out: IC50 HDAC1
Sequence (Q13547 whole entry, species assumed): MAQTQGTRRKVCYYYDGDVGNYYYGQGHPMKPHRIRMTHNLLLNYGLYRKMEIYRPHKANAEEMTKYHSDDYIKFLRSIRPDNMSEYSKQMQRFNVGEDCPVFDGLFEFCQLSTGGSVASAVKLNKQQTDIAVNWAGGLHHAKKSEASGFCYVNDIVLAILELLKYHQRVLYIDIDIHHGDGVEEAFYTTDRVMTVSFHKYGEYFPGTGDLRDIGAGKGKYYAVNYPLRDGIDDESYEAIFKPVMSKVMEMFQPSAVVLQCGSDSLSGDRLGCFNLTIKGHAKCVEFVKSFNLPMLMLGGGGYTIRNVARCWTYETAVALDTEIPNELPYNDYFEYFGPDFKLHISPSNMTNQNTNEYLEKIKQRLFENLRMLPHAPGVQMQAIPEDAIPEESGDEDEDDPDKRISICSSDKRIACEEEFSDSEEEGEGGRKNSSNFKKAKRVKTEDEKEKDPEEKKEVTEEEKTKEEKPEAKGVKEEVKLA
ASSAY_READOUT: IC50

Form field: IC50 recorded for C[C@@H]1CCCCO[C@@H](CN(C)Cc2ccc3c(c2)OCO3)[C@H](C)CN([C@@H](C)CO)C(=O)c2cc(N(C)C)ccc2O1 with HDAC1 (Homo sapiens) (enter value)
2700 nM

====

target: HDAC3 (Homo sapiens, UniProt O15379)
Sequence (O15379 whole entry, species assumed): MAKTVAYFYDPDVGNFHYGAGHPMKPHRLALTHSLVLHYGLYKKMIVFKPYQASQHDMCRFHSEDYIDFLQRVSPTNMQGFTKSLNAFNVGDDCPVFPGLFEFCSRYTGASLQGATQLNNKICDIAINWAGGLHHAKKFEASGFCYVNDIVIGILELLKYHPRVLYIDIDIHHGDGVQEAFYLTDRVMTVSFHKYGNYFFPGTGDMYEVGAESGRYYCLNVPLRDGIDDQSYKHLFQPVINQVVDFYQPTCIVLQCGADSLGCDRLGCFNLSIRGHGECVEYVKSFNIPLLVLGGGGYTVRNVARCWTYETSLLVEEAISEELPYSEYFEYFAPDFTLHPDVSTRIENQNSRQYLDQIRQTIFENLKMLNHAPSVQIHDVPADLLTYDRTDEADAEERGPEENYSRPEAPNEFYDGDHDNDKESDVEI
Sequence (Q9Y618 395-489 partner limits assumed, species assumed): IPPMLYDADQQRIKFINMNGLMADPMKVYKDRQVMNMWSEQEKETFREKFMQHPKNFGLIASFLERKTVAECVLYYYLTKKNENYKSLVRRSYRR
ASSAY_READOUT: IC50 (µM)
The response must be a number in µM with no trailing unit.

Form field: IC50 recorded for C[C@@H]1CCCCO[C@@H](CN(C)Cc2ccc3c(c2)OCO3)[C@H](C)CN([C@@H](C)CO)C(=O)c2cc(N(C)C)ccc2O1 [entry 1] with HDAC3 (Homo sapiens, UniProt O15379) (enter value)
2.7
